Recorded EC50 by entry
test: Lactate dehydrogenase (LDH) release assay; assay type: cell-based; conditions: LDH: Cytotoxicity assay: EC50
Positions of bridges follow the written chain, without caps; N, C: chain ends. Non-standard residues stand in square brackets, D forms with d. Residues, ends and D or L forms follow the SMILES beside them. Lys(N3) = [N-]=[N+]=NCCCC[C@H](N)C(=O)O; R8 = C=CCCCCCC[C@@](C)(N)C(=O)O; Cba = N[C@@H](CC1CCC1)C(=O)O; S5 = C=CCCC[C@](C)(N)C(=O)O; βAla = NCCC(=O)O; Sar = CNCC(=O)O

In the examples that follow, each entry is paired with its recorded EC50.
{"molecule": "CC(=O)N[C@@H](CCCCN=[N+]=[N-])C(=O)NCCC(=O)N[C@H](C(=O)N[C@H](C(=O)N[C@@H](Cc1ccccc1)C(=O)N[C@]1(C)CCCCCCC=CCCC[C@@](C)(C(=O)N[C@@H](CO)C(=O)N[C@@H](C)C(=O)N[C@@H](C)C(N)=O)NC(=O)[C@H](CC2CCC2)NC(=O)[C@H](CCC(N)=O)NC(=O)[C@H](C(C)C)NC(=O)[C@H](Cc2c[nH]c3ccccc23)NC(=O)[C@H](Cc2ccc(O)cc2)NC(=O)[C@H](C(C)C)NC1=O)[C@@H](C)O)C(C)C [MP-490] (Ac-[Lys(N3)][βAla]VTF[R8]VYWVQ[Cba][S5]SAA-NH2; staple 6-13)", "readout_label": "EC50", "result": "> 50.6 µM"}
{"molecule": "CC(=O)N[C@@H](CC(C)C)C(=O)N[C@H](C(=O)N[C@@H](Cc1ccccc1)C(=O)N[C@]1(C)CCCCCCC=CCCC[C@@](C)(C(=O)N[C@@H](CO)C(=O)N[C@@H](C)C(=O)N[C@@H](C)C(N)=O)NC(=O)[C@H](CC2CCC2)NC(=O)[C@H](CCC(N)=O)NC(=O)[C@H](C)NC(=O)[C@H](Cc2c[nH]c3cc(Cl)ccc23)NC(=O)[C@H](Cc2ccc(O)cc2)NC(=O)[C@H](CCC(=O)O)NC1=O)[C@@H](C)O [MP-192]", "readout_label": "EC50", "result": "19.9 µM"}
{"molecule": "CC(=O)N[C@H](CC(C)C)C(=O)N[C@H](C(=O)N[C@@H](Cc1ccccc1)C(=O)N[C@]1(C)CCCCCCC=CCCC[C@@](C)(C(=O)N[C@@H](CO)C(=O)N[C@@H](C)C(=O)N[C@H](C)C(N)=O)NC(=O)[C@H](CC2CCC2)NC(=O)[C@H](CC(C)C)NC(=O)[C@H](CCC(N)=O)NC(=O)[C@H](Cc2c[nH]c3ccccc23)NC(=O)[C@H](Cc2ccc(O)cc2)NC(=O)[C@H](CCC(=O)O)NC1=O)[C@@H](C)O [MP-7202]", "readout_label": "EC50", "result": "> 50.6 µM"}

Looking up CC(=O)N[C@@H](CCCCN=[N+]=[N-])C(=O)NCCC(=O)N[C@@H](CC(C)C)C(=O)N[C@H](C(=O)N[C@@H](Cc1ccccc1)C(=O)N[C@]1(C)CCCCCCC=CCCC[C@@](C)(C(=O)N[C@@H](CO)C(=O)N[C@@H](C)C(=O)N[C@@H](C)C(N)=O)NC(=O)[C@H](CC2CCC2)NC(=O)[C@H](CCC(N)=O)NC(=O)[C@H](C)NC(=O)[C@H](Cc2c[nH]c3ccccc23)NC(=O)[C@@H](CCC(=O)O)NC(=O)[C@H](C)NC1=O)[C@@H](C)O [MP-036] (Ac-[Lys(N3)][βAla]LTF[R8]A[dE]WAQ[Cba][S5]SAA-NH2; staple 6-13) , I found its EC50 recorded as > 50.6 µM

Looking up CC(=O)N[C@@H](CCCCN=[N+]=[N-])C(=O)NCCC(=O)N[C@@H](CC(C)C)C(=O)N[C@H](C(=O)N[C@@H](Cc1ccccc1)C(=O)N[C@]1(C)CCCCCCC=CCCC[C@@](C)(C(=O)N2CCC[C@H]2C(=O)N[C@@H](C)C(=O)N[C@@H](C)C(N)=O)NC(=O)[C@H](CC2CCC2)NC(=O)[C@H](CCC(N)=O)NC(=O)[C@H](C)NC(=O)[C@H](Cc2c[nH]c3ccccc23)NC(=O)[C@H](Cc2ccc(O)cc2)NC(=O)[C@H](CCC(=O)O)NC1=O)[C@@H](C)O [MP-184] (Ac-[Lys(N3)][βAla]LTF[R8]EYWAQ[Cba][S5]PAA-NH2; staple 6-13) , I found its EC50 recorded as > 50.6 µM

Looking up CC(=O)N[C@@H](CCCCN=[N+]=[N-])C(=O)NCCC(=O)N[C@@H](CC(C)C)C(=O)N[C@H](C)C(=O)N[C@@H](Cc1ccccc1)C(=O)N[C@]1(C)CCCCCCC=CCCC[C@@](C)(C(=O)N[C@@H](CO)C(=O)N[C@@H](C)C(=O)N[C@@H](C)C(N)=O)NC(=O)[C@H](CC2CCC2)NC(=O)[C@H](CCC(N)=O)NC(=O)[C@H](C)NC(=O)[C@H](Cc2c[nH]c3ccccc23)NC(=O)[C@H](Cc2ccc(O)cc2)NC(=O)[C@H](CCC(=O)O)NC1=O [MP-7471] (Ac-[Lys(N3)][βAla]L[dA]F[R8]EYWAQ[Cba][S5]SAA-NH2; staple 6-13) , I found its EC50 recorded as > 50 µM

Looking up CC(=O)N[C@@H](CCCCN=[N+]=[N-])C(=O)NCCC(=O)N[C@@H](CC(C)C)C(=O)N[C@H](C(=O)N[C@@H](Cc1ccccc1)C(=O)N[C@]1(C)CCCCCCC=CCCC[C@@](C)(C(=O)N[C@@H](CO)C(=O)N[C@@H](C)C(=O)N[C@@H](C)C(N)=O)NC(=O)[C@H](CC2CCC2)NC(=O)[C@H](CCC(N)=O)NC(=O)[C@H](C)NC(=O)[C@H](Cc2c[nH]c3ccccc23)NC(=O)[C@H](CCC(=O)O)NC(=O)[C@H](CCC(=O)O)NC1=O)[C@@H](C)O [MP-842] , I found its EC50 recorded as > 50.7 µM

Looking up CC(=O)N[C@@H](CCCCN=[N+]=[N-])C(=O)NCCC(=O)N(C)CC(=O)N[C@H](C(=O)N[C@@H](Cc1ccccc1)C(=O)N[C@]1(C)CCCCCCC=CCCC[C@@](C)(C(=O)N[C@@H](CO)C(=O)N[C@@H](C)C(=O)N[C@@H](C)C(N)=O)NC(=O)[C@H](CC2CCC2)NC(=O)[C@H](CCC(N)=O)NC(=O)[C@H](C)NC(=O)[C@H](Cc2c[nH]c3ccccc23)NC(=O)[C@H](Cc2ccc(O)cc2)NC(=O)[C@H](CCC(=O)O)NC1=O)[C@@H](C)O [MP-799] (Ac-[Lys(N3)][βAla][Sar]TF[R8]EYWAQ[Cba][S5]SAA-NH2; staple 6-13) , I found its EC50 recorded as > 50.6 µM

Provenance of the data: paper PMC10786919
